These data points were gathered from patent US10322118B2.

target: Cif (Pseudomonas aeruginosa (strain UCBPP-PA14)); assay: Primary high throughput screen with fluorogenic substrate CMNGC; format: biochemical; settings: primary screen; test compounds at 10 μM, 1 μM Cif, 25 μM CMNGC, 60 minutes;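 note: fluorescence of 200 µL reactions in 96-well plates read on a plate reader, inhibitor at tenfold molar excess over Cif enzyme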
Sequence (A0A0H2ZD27 25-319 limits assumed): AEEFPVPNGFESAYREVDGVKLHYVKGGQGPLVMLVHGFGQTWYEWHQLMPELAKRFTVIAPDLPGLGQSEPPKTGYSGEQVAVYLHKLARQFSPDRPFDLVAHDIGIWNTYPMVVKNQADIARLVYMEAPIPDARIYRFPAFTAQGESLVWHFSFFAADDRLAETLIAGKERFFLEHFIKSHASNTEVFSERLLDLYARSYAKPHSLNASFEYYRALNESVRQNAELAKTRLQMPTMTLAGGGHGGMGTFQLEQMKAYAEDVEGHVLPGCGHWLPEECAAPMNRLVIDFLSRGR
Where a name gives a salt, the structure may show the parent alone.
// reported inhibition at 10 µM per item
Parameter: inhibition at 10 µM (%)

# Compound, Study target, Unit abbreviation, Test result
records = [
    ("CC(C)Cc1ccc(C(C)C(=O)O)cc1 (stereo not shown) [Ibuprofen]", "Cif (Pseudomonas aeruginosa (strain UCBPP-PA14))", "%", 48),
    ("NC[C@H]1O[C@H](O[C@H]2[C@H](O)[C@@H](O[C@H]3O[C@H](CO)[C@@H](O)[C@H](N)[C@H]3O)[C@H](N)C[C@@H]2N)[C@H](N)C[C@@H]1O [Tobramycin]", "Cif (Pseudomonas aeruginosa (strain UCBPP-PA14))", "%", 40),
    ("CN(C)CCCN1c2ccccc2Sc2ccc(C(F)(F)F)cc21 [Triflupromazine hydrochloride]", "Cif (Pseudomonas aeruginosa (strain UCBPP-PA14))", "%", 33),
    ("CCCCCCCCCCCCCCCCOP(=O)([O-])OCC[N+](C)(C)C [Miltefosine]", "Cif (Pseudomonas aeruginosa (strain UCBPP-PA14))", "%", 34),
]
